System: human breast cancer cells MDA-MB-231
experiment: Soft agar colony formation assay
Type: cell-based
experimental conditions: MDA-MB-231, 336 h, 14 days of incubation, read-out: inhibition of colony formation (decrease in number of colonies) of MDA-MB-231 cells
quantity name: inhibition at 20 µM (%)
# value in %; strip the unit string

Using known records, supply inhibition at 20 µM for CCCCCCCCCCCCCC[C@@H](O)C(=O)N[C@@H](CO)[C@H](O)[C@H](O)CCCC/C=C\CCCCCCCCC(C)C [Compound 1]
46

Using known records, supply inhibition at 20 µM for CCCCCCCCCCCCCCCCCCCCCC[C@@H](O)C(=O)N[C@@H](CO[C@@H]1O[C@H](CO)[C@@H](O)[C@H](O)[C@H]1O)[C@H](O)[C@H](O)CCCCCCCCCC(C)CC (stereo partly drawn) [Compound 9]
50

Using known records, supply inhibition at 20 µM for CCCCCCC/C=C/C(C)=C/CC/C=C/[C@@H](O)[C@H](CO[C@@H]1O[C@H](CO)[C@@H](O)[C@H](O)[C@H]1O)NC(=O)[C@H](O)CCCCCCCCCCCCCCCCCCCCC [Compound 6, ophidiacerebroside D]
68

###

Tested on: human breast cancer cells MDA-MB-231
experiment: Soft agar colony formation assay
Assay type: cell-based
experimental conditions: MDA-MB-231, 336 h, 14 days of incubation, read-out: inhibition of colony formation (decrease in number of colonies) of MDA-MB-231 cells
quantity name: inhibition at 20 µM (%)
# value in %; strip the unit string

Example entries begin here.
1) CCCCCCCCCCCCCCCCCCCC[C@@H](O)C(=O)N[C@@H](CO[C@@H]1O[C@H](CO)[C@@H](O)[C@H](O)[C@H]1O)[C@H](O)[C@H](O)CCCCCCCCCC(C)CC (some centres unmarked) [Compound 7, CE-3-2] | 44
2) CCCCCCC/C=C/C(C)=C/CC/C=C/[C@@H](O)[C@H](CO[C@@H]1O[C@H](CO)[C@@H](O)[C@H](O)[C@H]1O)NC(=O)[C@H](O)CCCCCCCCCCCCCCCCCCCC [Compound 5, ophidiacerebroside C] | 54
3) COc1cccc2c1C(=O)c1c(O)c3c(c(O)c1C2=O)C[C@@](O)(C(=O)CO)C[C@@H]3O[C@H]1C[C@H](N)[C@H](O)[C@H](C)O1 [Doxorubicin, reference compound] | 70
4) CCCCCCCCCCCCCCC[C@@H](O)C(=O)N[C@@H](CO)[C@H](O)[C@H](O)CCCC/C=C\CCCCCCCCCCC(C)C [Compound 3] | 48

Would you kindly look at the next entry?
Using known records, supply inhibition at 20 µM for CCCCCCCCCCCCCC[C@@H](O)C(=O)N[C@@H](CO)[C@H](O)[C@H](O)CCCC/C=C\CCCCCCCCCCC(C)C [Compound 2]
68

###

System: breast adenocarcinoma MDA-MB-231 cells
experiment: MTS cell viability assay, MDA-MB-231
Format: cell-based, human
experimental conditions: Homo sapiens, MDA-MB-231; MTS assay, 24 h exposure, mean ± SD; read-out: Half Maximal Inhibitory Concentration (IC50) MDA-MB-231
pIC50: −log10 of the molar value.
quantity name: pIC50

Example entries begin here.
1. CCCCCCCCCCCCCCCCCCCC[C@@H](O)C(=O)N[C@@H](CO[C@@H]1O[C@H](CO)[C@@H](O)[C@H](O)[C@H]1O)[C@H](O)[C@H](O)CCCCCCCCCC(C)CC (stereo partly drawn) | < 4.30
2. CCCCCCCCCCCCCCCCCCCCCC[C@@H](O)C(=O)N[C@@H](CO[C@@H]1O[C@H](CO)[C@@H](O)[C@H](O)[C@H]1O)[C@H](O)[C@H](O)CCCCCCCCCC(C)CC (stereo partly drawn) | < 4.30

Would you kindly look at the next entry?
Using known records, supply pIC50 for CCCCCCCCCCCCCC[C@@H](O)C(=O)N[C@@H](CO)[C@H](O)[C@H](O)CCCC/C=C\CCCCCCCCC(C)C
< 4.30
